System: 156681-154-R-J1-PDC complex spheroid viability
Assay: Anticancer human tumor 156681-154-R-J1-PDC patient-derived melanoma cell line growth inhibition [CLK]
Conditions: second compound 10 µM; first compound 0.0316 µM; active compounds read low
assay.metric: viability, T/C

{"compound": "COc1ccc([C@@H](O)c2cc(-c3ncnc4cc(N5CCOCC5)ccc34)c(F)cc2Cl)nn1 + CNC(=O)c1ccc(Nc2nc(OC3CCCC3)c3c(-c4ccc5nc(C)oc5c4)c[nH]c3n2)c(OC)c1", "viability, T/C": "39.3%"}
{"compound": "CCc1c2c(nc3ccc(O)cc13)-c1cc3c(c(=O)n1C2)COC(=O)[C@]3(O)CC + CNC(=O)c1ccc(Nc2nc(OC3CCCC3)c3c(-c4ccc5nc(C)oc5c4)c[nH]c3n2)c(OC)c1", "viability, T/C": "11.1%"}
{"compound": "Nc1ccn(C2OC(CO)C(O)C2(F)F)c(=O)n1 (stereo not given) + CNC(=O)c1ccc(Nc2nc(OC3CCCC3)c3c(-c4ccc5nc(C)oc5c4)c[nH]c3n2)c(OC)c1", "viability, T/C": "28.5%"}
{"compound": "CCCS(=O)(=O)Nc1ccc(F)c(C(=O)c2c[nH]c3ncc(-c4ccc(Cl)cc4)cc23)c1F + CN1CCN(c2cc(C(=O)Nc3cc4cc(-c5cnn(C)c5)ccc4cn3)ccn2)CC1", "viability, T/C": "0.13%"}

// next entry
**Query** Need viability, T/C of CC(CO)NC(=O)c1cc(-c2ccc(Cl)cc2)nn(-c2cnn(C)c2)c1=O (stereo not given) + CN1CCN(c2cc(C(=O)Nc3cc4cc(-c5cnn(C)c5)ccc4cn3)ccn2)CC1 , thanks.
**Result** 0.29%

###

System: 156681-154-R-J1-PDC complex spheroid viability
Assay: Anticancer human tumor 156681-154-R-J1-PDC cell line growth inhibition [CLK];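 note: spheroids exposed to the agents for seven days; 100% = DMSO vehicle control viability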
Conditions: second compound 1 µM; first compound 3.16 µM; active compounds read low
Source text: A high-throughput screen of multi-cell type tumor spheroids was designed to identify active combinations of […] and targeted small molecules. Complex spheroids include a stromal component modeled by human endothelial cells (HUVEC) and fibroblasts modeled by human mesenchymal stem cells (MSCs). […] Compounds. […] If the clinical Cmax for an agent had not been determined, the highest concentration tested was 10 microM. […]
// NB: equality with 3% counts as -1; only viability, T/C strictly below is 1

**Query** Does the reported viability, T/C of the following compound sit strictly below 3%? CC(CO)NC(=O)c1cc(-c2ccc(Cl)cc2)nn(-c2cnn(C)c2)c1=O (stereo not drawn) + CN1CCN(c2cc(C(=O)Nc3cc4cc(-c5cnn(C)c5)ccc4cn3)ccn2)CC1
**Result** 1

**Query** Input CCCS(=O)(=O)Nc1ccc(F)c(C(=O)c2c[nH]c3ncc(-c4ccc(Cl)cc4)cc23)c1F + CN1CCN(c2cc(C(=O)Nc3cc4cc(-c5cnn(C)c5)ccc4cn3)ccn2)CC1
**Result** 1

**Query** Again, but for COc1cccc2c1C(=O)c1c(O)c3c(c(O)c1C2=O)CC(O)(C(=O)CO)CC3OC1CC(N)C(O)C(C)O1 (stereo not drawn) + CNC(=O)c1ccc(Nc2nc(OC3CCCC3)c3c(-c4ccc5nc(C)oc5c4)c[nH]c3n2)c(OC)c1
**Result** 1

**Query** And for Nc1ccccc1NC(=O)c1ccc(CNC(=O)OCc2cccnc2)cc1 + CNC(=O)c1ccc(Nc2nc(OC3CCCC3)c3c(-c4ccc5nc(C)oc5c4)c[nH]c3n2)c(OC)c1 ?
**Result** -1

**Query** Also CC1COCCN1c1cc(C2(S(C)(=N)=O)CC2)nc(-c2ccnc3[nH]ccc23)n1 (stereo not drawn) + CNC(=O)c1ccc(Nc2nc(OC3CCCC3)c3c(-c4ccc5nc(C)oc5c4)c[nH]c3n2)c(OC)c1 ?
**Result** -1

**Query** Can you check C=CC(=O)N1CCN(c2nc(=O)n(-c3c(C)ccnc3C(C)C)c3nc(-c4c(O)cccc4F)c(F)cc23)C(C)C1 (stereo not drawn) + CNC(=O)c1ccc(Nc2nc(OC3CCCC3)c3c(-c4ccc5nc(C)oc5c4)c[nH]c3n2)c(OC)c1 next?
**Result** -1

**Query** Try the compound Nc1ccn(C2OC(CO)C(O)C2(F)F)c(=O)n1 (stereo not drawn) + CNC(=O)c1ccc(Nc2nc(OC3CCCC3)c3c(-c4ccc5nc(C)oc5c4)c[nH]c3n2)c(OC)c1
**Result** -1

**Query** Now consider C#Cc1c(F)ccc2cc(O)cc(-c3ncc4c(N5CC6CCC(C5)N6)nc(OCC56CCCN5CC(F)C6)nc4c3F)c12 (stereo not drawn) + CN1CCN(c2cc(C(=O)Nc3cc4cc(-c5cnn(C)c5)ccc4cn3)ccn2)CC1 .
**Result** 1

**Query** Then what about the compound C=C(F)C(=O)N1CCN(c2nc(OCC3CCCN3C)nc3c2CCN(c2cccc4cccc(Cl)c24)C3)CC1CC#N (stereo not drawn) + CNC(=O)c1ccc(Nc2nc(OC3CCCC3)c3c(-c4ccc5nc(C)oc5c4)c[nH]c3n2)c(OC)c1 ?
**Result** -1

**Query** And what about the compound O=C(c1cc(Cc2n[nH]c(=O)c3ccccc23)ccc1F)N1CCN(C(=O)C2CC2)CC1 + CN1CCN(c2cc(C(=O)Nc3cc4cc(-c5cnn(C)c5)ccc4cn3)ccn2)CC1 ?
**Result** 1

**Query** // next record C#Cc1c(F)ccc2cc(O)cc(-c3ncc4c(N5CC6CCC(C5)N6)nc(OCC56CCCN5CC(F)C6)nc4c3F)c12 (stereo not drawn) + CNC(=O)c1ccc(Nc2nc(OC3CCCC3)c3c(-c4ccc5nc(C)oc5c4)c[nH]c3n2)c(OC)c1
**Result** -1

**Query** Now the same for CC(Nc1ccc2c(c1)OCCn1cc(N3C(=O)OCC3C(F)F)nc1-2)C(N)=O (stereo not drawn) + CN1CCN(c2cc(C(=O)Nc3cc4cc(-c5cnn(C)c5)ccc4cn3)ccn2)CC1
**Result** 1

**Query** And O=C(c1cc(Cc2n[nH]c(=O)c3ccccc23)ccc1F)N1CCN(C(=O)C2CC2)CC1 + CNC(=O)c1ccc(Nc2nc(OC3CCCC3)c3c(-c4ccc5nc(C)oc5c4)c[nH]c3n2)c(OC)c1 ?
**Result** -1

This collection of values is drawn from PubChem BioAssay AID2060627.
